# SYSTEM_NAME: PIK3CG (human) (UniProt P48736)
# Sequence (P48736 whole entry, looked up): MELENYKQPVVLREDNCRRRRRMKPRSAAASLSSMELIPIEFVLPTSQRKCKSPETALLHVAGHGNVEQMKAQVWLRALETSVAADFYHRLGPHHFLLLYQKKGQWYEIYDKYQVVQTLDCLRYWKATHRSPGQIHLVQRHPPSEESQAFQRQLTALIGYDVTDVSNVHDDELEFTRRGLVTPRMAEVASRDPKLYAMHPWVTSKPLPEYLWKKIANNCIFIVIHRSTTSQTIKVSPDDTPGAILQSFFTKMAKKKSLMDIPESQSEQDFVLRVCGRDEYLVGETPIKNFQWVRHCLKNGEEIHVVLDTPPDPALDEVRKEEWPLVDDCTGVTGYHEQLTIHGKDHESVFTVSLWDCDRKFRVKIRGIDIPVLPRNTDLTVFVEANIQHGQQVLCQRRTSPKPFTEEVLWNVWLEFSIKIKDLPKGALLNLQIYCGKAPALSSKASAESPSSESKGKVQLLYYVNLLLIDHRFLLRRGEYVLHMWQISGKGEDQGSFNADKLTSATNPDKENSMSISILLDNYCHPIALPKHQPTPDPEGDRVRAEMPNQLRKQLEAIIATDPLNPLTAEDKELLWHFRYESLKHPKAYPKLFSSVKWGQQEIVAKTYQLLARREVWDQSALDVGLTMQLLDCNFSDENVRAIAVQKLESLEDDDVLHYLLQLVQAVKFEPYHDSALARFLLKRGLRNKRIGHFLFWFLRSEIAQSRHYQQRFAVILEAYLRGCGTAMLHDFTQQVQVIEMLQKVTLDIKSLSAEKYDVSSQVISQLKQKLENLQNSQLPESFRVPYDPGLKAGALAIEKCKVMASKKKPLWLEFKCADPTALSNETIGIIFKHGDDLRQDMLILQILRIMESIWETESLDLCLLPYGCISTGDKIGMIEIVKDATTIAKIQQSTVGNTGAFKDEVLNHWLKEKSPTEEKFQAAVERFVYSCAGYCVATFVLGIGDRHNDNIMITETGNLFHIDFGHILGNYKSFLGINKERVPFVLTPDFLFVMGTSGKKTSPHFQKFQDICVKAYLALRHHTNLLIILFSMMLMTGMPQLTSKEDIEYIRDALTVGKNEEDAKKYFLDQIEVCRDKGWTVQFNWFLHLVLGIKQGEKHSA
# ASSAY_PROTOCOL: Cell-Based Assay
# EXPERIMENTAL_PARAMETERS: u937
I'd be grateful if you could share measured pIC50 for these entries.
pIC50 (log units): -log10 of the concentration in mol/L.

Provide pIC50, recorded with PIK3CG (human) (UniProt P48736), of N#Cc1c(N)ncnc1N1CCC[C@H]1c1nc2cccc(O)c2c(=O)n1-c1ccccc1
6.31

Provide pIC50, recorded with PIK3CG (human) (UniProt P48736), of CS(=O)(=O)N[C@H]1C[C@@H](c2nc3cccc(Cl)c3c(=O)n2-c2ccccc2)N(c2ncnc3[nH]cnc23)C1
6.83

Provide pIC50, recorded with PIK3CG (human) (UniProt P48736), of Nc1nc(N2CCC[C@H]2c2nc3cccc(Cl)c3c(=O)n2N2CCOCC2)c2nc[nH]c2n1
5.74

Provide pIC50, recorded with PIK3CG (human) (UniProt P48736), of CO[C@H]1C[C@@H](c2nc3cccc(Cl)c3c(=O)n2-c2ccccc2)N(c2ncnc3[nH]cnc23)C1
6.45

Provide pIC50, recorded with PIK3CG (human) (UniProt P48736), of O=c1c2c(Cl)cccc2nc([C@@H]2C[C@H](OC(F)F)CN2c2ncnc3[nH]cnc23)n1-c1ccccc1
6.93

Provide pIC50, recorded with PIK3CG (human) (UniProt P48736), of Nc1nc(N2CCC[C@H]2c2nc3cccc(Cl)c3c(=O)n2-c2ccccc2)c2ncsc2n1
7.23

Provide pIC50, recorded with PIK3CG (human) (UniProt P48736), of CO[C@H]1C[C@@H](c2nc3cccc(C(F)(F)F)c3c(=O)n2-c2ccccc2)N(c2nc(N)nc(C)c2C#N)C1
6.64

Provide pIC50, recorded with PIK3CG (human) (UniProt P48736), of Cn1cnc2c(N3CCC[C@H]3c3nc4cccc(Cl)c4c(=O)n3N3CCOCC3)nc(N)nc21
5.63

Provide pIC50, recorded with PIK3CG (human) (UniProt P48736), of Cc1nc(N)nc(N2CCC[C@H]2c2nc3cccc(C(F)(F)F)c3c(=O)n2-c2cncc(F)c2)c1C#N
7.04

Provide pIC50, recorded with PIK3CG (human) (UniProt P48736), of Cc1nc(N)nc(N2C[C@@H](O)C[C@H]2c2nc3cccc(C)c3c(=O)n2-c2ccccc2)c1C#N
7.46

Provide pIC50, recorded with PIK3CG (human) (UniProt P48736), of CO[C@H]1C[C@@H](c2nc3cccc(Cl)c3c(=O)n2-c2ccccc2)N(c2ncnc(N)c2C#N)C1
6.68

Provide pIC50, recorded with PIK3CG (human) (UniProt P48736), of CO[C@H]1C[C@@H](c2nc3cccc(C(F)(F)F)c3c(=O)n2-c2ccccc2)N(c2ncnc(N)c2C#N)C1
6.17

Provide pIC50, recorded with PIK3CG (human) (UniProt P48736), of Nc1nc(N2C[C@@H](F)C[C@H]2c2nc3cccc(C(F)(F)F)c3c(=O)n2-c2cccnc2)c2nc[nH]c2n1
7.12

Provide pIC50, recorded with PIK3CG (human) (UniProt P48736), of Cc1nc(N)nc(N2CCC[C@H]2c2nc3cccc(C(F)(F)F)c3c(=O)n2-c2cccnc2)c1C#N
7.09

Provide pIC50, recorded with PIK3CG (human) (UniProt P48736), of Nc1nc(N2CCC[C@H]2c2nc3cccc(Cl)c3c(=O)n2C2CC2)c2nc[nH]c2n1
6.05

Provide pIC50, recorded with PIK3CG (human) (UniProt P48736), of O=c1c2c(C(F)(F)F)cccc2nc([C@@H]2C[C@H](O)CN2c2ncnc3[nH]cnc23)n1-c1ccccc1
7.47

Provide pIC50, recorded with PIK3CG (human) (UniProt P48736), of CO[C@H]1C[C@@H](c2nc3cccc(Cl)c3c(=O)n2C2CC2)N(c2ncnc(N)c2C#N)C1
6.33

Provide pIC50, recorded with PIK3CG (human) (UniProt P48736), of Cc1nc(N)nc(N2C[C@@H](O)C[C@H]2c2nc3ccc(F)c(Cl)c3c(=O)n2-c2ccccc2)c1C#N
8.15

Provide pIC50, recorded with PIK3CG (human) (UniProt P48736), of N#Cc1c(N)ncnc1N1C[C@@H](O)C[C@H]1c1nc2cccc(Cl)c2c(=O)n1-c1ccccc1
6.57

Provide pIC50, recorded with PIK3CG (human) (UniProt P48736), of Nc1nc(N2C[C@@H](O)C[C@H]2c2nc3cccc(C(F)(F)F)c3c(=O)n2-c2ccccc2)c2ncsc2n1
7.26

Provide pIC50, recorded with PIK3CG (human) (UniProt P48736), of Nc1nc(N2C[C@@H](O)C[C@H]2c2nc3cccc(C(F)(F)F)c3c(=O)n2-c2ccccc2)c2nccn2n1
7.51

Provide pIC50, recorded with PIK3CG (human) (UniProt P48736), of Cn1cnc2c(N3CCC[C@H]3c3nc4cccc(Cl)c4c(=O)n3-c3ccccc3)nc(N)nc21
6.67

Provide pIC50, recorded with PIK3CG (human) (UniProt P48736), of Cc1nc(N)nc(N2C[C@@H](O)C[C@H]2c2nc3cccc(Cl)c3c(=O)n2C2CC2)c1C#N
6.66

Provide pIC50, recorded with PIK3CG (human) (UniProt P48736), of Cc1nc(N)nc(N2CCC[C@H]2c2nc3cccc(C(F)(F)F)c3c(=O)n2-c2cncnc2)c1C#N
6.51

Provide pIC50, recorded with PIK3CG (human) (UniProt P48736), of Cc1nc(N)nc(N2C[C@@H](O)C[C@H]2c2nc3ccc(F)c(F)c3c(=O)n2-c2ccccc2)c1C#N
7.48

Provide pIC50, recorded with PIK3CG (human) (UniProt P48736), of Cc1nc(N)nc(N2C[C@@H](F)C[C@H]2c2nc3cccc(C(F)(F)F)c3c(=O)n2-c2ccccc2)c1C#N
7.66

Provide pIC50, recorded with PIK3CG (human) (UniProt P48736), of N#Cc1c(N)ncnc1N1CCC[C@H]1c1nc2cccc(C(F)(F)F)c2c(=O)n1-c1ccccc1
6.58

Provide pIC50, recorded with PIK3CG (human) (UniProt P48736), of Nc1nc(N2CCC[C@H]2c2nc3cccc(Cl)c3c(=O)n2-c2cccnc2)c2nc[nH]c2n1
6.17

Provide pIC50, recorded with PIK3CG (human) (UniProt P48736), of Cc1nc(N)nc(N2C[C@@H](O)C[C@H]2c2nc3cccc(C(F)(F)F)c3c(=O)n2-c2cccc(F)c2)c1C#N
8.00

Provide pIC50, recorded with PIK3CG (human) (UniProt P48736), of Cc1nc(N)nc(N2C[C@@H](F)C[C@H]2c2nc3cccc(C(F)(F)F)c3c(=O)n2-c2cccnc2)c1C#N
7.28

Provide pIC50, recorded with PIK3CG (human) (UniProt P48736), of Nc1nc(N2CCC[C@H]2c2nc3cccc(Cl)c3c(=O)n2N2CCOCC2)c2nccn2n1
6.40

Provide pIC50, recorded with PIK3CG (human) (UniProt P48736), of N#Cc1c(N)ncnc1N1C[C@@H](O)C[C@H]1c1nc2cccc(F)c2c(=O)n1-c1ccccc1
6.15

These entries and their values trace back to the Kinase Knowledgebase extract (Sharma et al. 2016).
